# Assay target: T1, Helicoverpa armigera chitin synthase (Helicoverpa armigera)
# T1 construct: the tag is not part of the printed entry; also called CHS; target CHS antigen
# T1 chain: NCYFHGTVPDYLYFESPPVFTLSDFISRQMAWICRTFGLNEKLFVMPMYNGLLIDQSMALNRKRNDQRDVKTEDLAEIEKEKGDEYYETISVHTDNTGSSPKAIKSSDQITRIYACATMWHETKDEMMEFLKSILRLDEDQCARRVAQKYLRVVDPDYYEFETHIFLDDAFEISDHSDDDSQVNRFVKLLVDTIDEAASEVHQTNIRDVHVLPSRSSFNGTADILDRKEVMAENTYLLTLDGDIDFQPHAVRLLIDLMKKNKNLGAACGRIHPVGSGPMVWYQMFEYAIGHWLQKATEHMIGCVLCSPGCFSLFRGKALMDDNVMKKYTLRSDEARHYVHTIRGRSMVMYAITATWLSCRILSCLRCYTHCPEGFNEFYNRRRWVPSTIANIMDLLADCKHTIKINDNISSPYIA
# Test details: ELISA, plate coated with 10 ug/ml target protein, 2 ug/ml nanobody, anti-VHH-HRP, A450

- Binder: "CHS22 (VHH, Llama nanobody, His-tagged, expressed in E. coli SHuffle T7; also called anti-CHS nanobody CHS22) VHH: QVQLQESGGGLVQAGGSLRLSCAASGGTFSGLTMGWFRQAPGKERDFVAAISWNGRFTYYKDSVKGRFAISRDNAKSTVYLQMTSLKPEDTAVYYCGADVLSGRGYRYWGQGTQVTVSS"
  binding result: "binds"
- Binder: "CHS08 (VHH, Llama nanobody, His-tagged, expressed in E. coli SHuffle T7; also called CHS8; anti-CHS nanobody CHS08) VHH: QVQLQESGGGLVQAGSSLRLSCAASGRTFRYHAMGWFRQAPGKEREFVAGISTSGGMTYYPDSVKGRFTISRDNAKNTLYLQMNSLKPGDTAVYYCAKFHGDKGYGSSWYYDYWGQGTQVTVSS"
  binding result: "binds"
